The origin of these recorded values is patent US20260042731A1.

# System: weeds ABUTH, AMATA, AMBEL, CHEAL, ERICA
# test_description: Postemergence herbicide evaluation, overall average % weed control across ABUTH, AMATA, AMBEL, CHEAL and ERICA
# Assay type: in vivo
# condition_summary: post-emergence, 336 h, 280 g ae/ha, 14 DAA, average over five weeds; read-out: Overall Ave % Weed Control
Label scheme for pest or weed control at 280 g/ha: lower than 80% is Criterion not met, 80% and above is Criterion met.

C/C(=N\OC(=O)COc1ccc(Cl)cc1Cl)C(=O)c1ccccc1 [Compound A22] = Criterion met
O=C(COc1cc(Cl)cc(Cl)c1)OCCCOC(=O)COc1ccc(Cl)cc1Cl [Compound B7] = Criterion not met
CCN(CC)OC(=O)COc1ccc(Cl)cc1Cl [Compound A21] = Criterion met
O=C(COc1ccc(Cl)cc1Cl)Oc1cccnc1 [Compound E9] = Criterion met
CONC(=O)COc1ccc(Cl)cc1Cl [Compound D19] = Criterion met

###

Property: pest or weed control at 560 g/ha; scope: individual molecules
# Tested on: weeds (ABUTH, AMATA, AMBEL, CHEAL, ERICA)
# test_description: Postemergence herbicide evaluation, overall average % weed control across ABUTH, AMATA, AMBEL, CHEAL, ERICA
# Type: in vivo
# condition_summary: post-emergence, 168 h; 560 g ae/ha, 7 DAA, average over the five weeds; read-out: Overall Ave % Weed Control
quantity_name: pest or weed control at 560 g/ha (%)

C/C(C/C(C)=N/OC(=O)COc1ccc(Cl)cc1Cl)=N\OC(=O)COc1ccc(Cl)cc1Cl [Compound B6] = 74
N/C(Cc1ccccc1)=N\OC(=O)COc1ccc(Cl)cc1Cl [Compound A17] = 70
O=C(COc1ccc(Cl)cc1Cl)Nc1ccc(Cl)cc1 [Compound D6] = 63
CCOC(=O)C(=NOC(=O)COc1ccc(Cl)cc1Cl)C(=O)OCC [Compound A7] = 76
O=C(COc1ccc(Cl)cc1Cl)ON1CCCCC1 [Compound A11] = 75
O=C(COc1ccc(Cl)cc1Cl)OCOC(=O)c1ccccc1 [Compound E7] = 78
CC(=O)/C(C)=N/OC(=O)COc1ccc(Cl)cc1Cl [Compound A8] = 79
O=C(COc1ccc(Cl)cc1Cl)NNC(=O)c1ccccc1 [Compound D10] = 75
Cc1ccc(S(=O)(=O)NC(=O)COc2ccc(Cl)cc2Cl)cc1 [Compound D5] = 61

###

# Tested on: Amaranthus rudis (AMATA), tall water hemp
# test_description: Postemergence herbicide evaluation, growth of Amaranthus rudis (AMATA)
# Assay type: in vivo
# condition_summary: Amaranthus tuberculatus, post-emergence, 504 h, 280 g ae/ha, 21 DAA, percent reduction in plant size relative to untreated control; read-out: Ave. AMATA
quantity_name: pest or weed control at 280 g/ha (%)

N/C(=N\OC(=O)COc1ccc(Cl)cc1Cl)c1ccc(/C(N)=N/OC(=O)COc2ccc(Cl)cc2Cl)cc1 = 15
Cn1c(O)c(C(=O)COc2ccc(Cl)cc2Cl)c2ccccc21 = 68
O=C(Cc1ccccc1)NOC(=O)COc1ccc(Cl)cc1Cl = 91
O=C(COc1ccc(Cl)cc1Cl)NOCc1ccccc1 = 73
N/C(=N\OC(=O)COc1ccc(Cl)cc1Cl)c1ccco1 = 73
O=C(COc1ccc(Cl)cc1Cl)ONC(=O)c1ccc(C(=O)NOC(=O)COc2ccc(Cl)cc2Cl)cc1 = 65
C/C(C/C(C)=N/OC(=O)COc1ccc(Cl)cc1Cl)=N\OC(=O)COc1ccc(Cl)cc1Cl = 75
CC(=O)/C(C)=N/OC(=O)COc1ccc(Cl)cc1Cl = 78
C/C(N)=N/OC(=O)COc1ccc(Cl)cc1Cl = 86
O=C(COc1ccc(Cl)cc1Cl)ON(Cc1ccccc1)Cc1ccccc1 = 53
O=C(COc1ccc(Cl)cc1Cl)O/N=C/c1ccc(/C=N/OC(=O)COc2ccc(Cl)cc2Cl)cc1 = 58
CS/C(C)=N\OC(=O)COc1ccc(Cl)cc1Cl = 78
CCO/C(CC)=N\OC(=O)COc1ccc(Cl)cc1Cl = 60
Cc1cc(OC(=O)COc2ccc(Cl)cc2Cl)n(C)n1 = 70
Cc1ccc(S(=O)(=O)NC(=O)COc2ccc(Cl)cc2Cl)cc1 = 75
O=C(COc1ccc(Cl)cc1Cl)ON1CCCCC1 = 85
CCOC(=O)C(=NOC(=O)COc1ccc(Cl)cc1Cl)C(=O)OCC = 90

###

# System: Ambrosia artemisiifolia (AMBEL), common ragweed
# test_description: Postemergence herbicide evaluation, growth of Ambrosia artemisiifolia (AMBEL)
# Assay type: in vivo
# condition_summary: Ambrosia artemisiifolia, post-emergence, 504 h, read-out: AVE. AMBEL
quantity_name: pest or weed control at 280 g/ha (%)

O=C(COc1ccc(Cl)cc1Cl)OCCCCCCOC(=O)COc1ccc(Cl)cc1Cl = 100
O=C(COc1ccc(Cl)cc1Cl)OCCCOC(=O)COc1ccc(Cl)cc1Cl = 90
O=C(COc1ccc(Cl)cc1Cl)OCc1ccccc1 [Compound E4, Benzyl 2-(2,4-dichlorophenoxy)acetate] = 99
O=C(COc1ccc(Cl)cc1Cl)OCCOC(=O)COc1ccc(Cl)cc1Cl = 100
O=C(COc1ccc(Cl)cc1Cl)OCCOCCOCCOCCOC(=O)COc1ccc(Cl)cc1Cl = 100
O=C(COc1ccc(Cl)cc1Cl)OCOC(=O)c1ccccc1 = 96
O=C(COc1ccc(Cl)cc1Cl)Oc1ccc(Cl)cc1 = 90
O=C(COc1ccc(Cl)cc1Cl)OCCOCCOCCOC(=O)COc1ccc(Cl)cc1Cl = 100

###

# System: weeds (ABUTH, AMATA, AMBEL, CHEAL, ERICA)
# test_description: Postemergence herbicide evaluation, overall average % weed control across ABUTH, AMATA, AMBEL, CHEAL, ERICA
# Format: in vivo
# condition_summary: post-emergence, 168 h; 560 g ae/ha, 7 DAA, average over the five weeds; read-out: Overall Ave % Weed Control
Property: pest or weed control at 560 g/ha; scope: individual molecules
quantity_name: pest or weed control at 560 g/ha (%)

O=C(COc1ccc(Cl)cc1Cl)NOCc1ccccc1 [Compound D8] = 73
CCO/C(CC)=N\OC(=O)COc1ccc(Cl)cc1Cl [Compound A9] = 75
O=C(COc1ccc(Cl)cc1Cl)ON1C(=O)c2ccccc2C1=O [Compound A15] = 74
CN(NC(=O)COc1ccc(Cl)cc1Cl)C(=O)c1ccccc1 [Compound D9] = 63
C/C(N)=N/OC(=O)COc1ccc(Cl)cc1Cl [Compound A12] = 76

###

# Test system: Amaranthus rudis (AMATA), tall water hemp
# test_description: Postemergence herbicide evaluation, growth of Amaranthus rudis (AMATA)
# Assay type: in vivo
# condition_summary: Amaranthus tuberculatus, post-emergence, 504 h, 280 g ae/ha, 21 DAA, percent reduction in plant size relative to untreated control; read-out: Ave. AMATA
quantity_name: pest or weed control at 280 g/ha (%)

O=C(COc1ccc(Cl)cc1Cl)NOc1ccccc1 = 83
CN(NC(=O)COc1ccc(Cl)cc1Cl)C(=O)c1ccccc1 = 83
O=C(COc1ccc(Cl)cc1Cl)NNC(=O)c1ccccc1 = 85
O=C(COc1ccc(Cl)cc1Cl)ON1C(=O)c2ccccc2C1=O = 84
CN(OC(=O)COc1ccc(Cl)cc1Cl)C(=O)c1ccccc1 = 65

###

# Test system: weeds ABUTH, AMATA, AMBEL, CHEAL, ERICA
# test_description: Postemergence herbicide evaluation, overall average % weed control (ABUTH, AMATA, AMBEL, CHEAL, ERICA)
# Format: in vivo
# condition_summary: post-emergence, 168 h, 280 g ae/ha, 7 DAA; read-out: Overall Ave % Weed Control
Label t when pest or weed control at 280 g/ha < 70%; otherwise f.

C/C(=N\OC(=O)COc1ccc(Cl)cc1Cl)c1ccccc1Cl = f
N/C(=N\OC(=O)COc1ccc(Cl)cc1Cl)c1ccccc1 = t
C/C(=N\OC(=O)COc1ccc(Cl)cc1Cl)c1ccccc1 = f
Cc1nccc(NC(=O)COc2ccc(Cl)cc2Cl)c1C = t
C/C(=N\OC(=O)COc1ccc(Cl)cc1Cl)c1ccncc1 = f
O=C(COc1ccc(Cl)cc1Cl)Oc1ncc(Cl)cn1 = f
O=C(COc1ccc(Cl)cc1Cl)O/N=C/c1ccccn1 = f
O=C(COc1ccc(Cl)cc1Cl)O/N=C/c1ccncc1 = f
O=C(COc1ccc(Cl)cc1Cl)Nc1c(Cl)c(F)nc(F)c1Cl = t
O=C(COc1ccc(Cl)cc1Cl)O/N=C1\CCCc2ccccc21 = t
N/C(=N\OC(=O)COc1ccc(Cl)cc1Cl)c1cccnc1 = t
CC(C)CONC(=O)COc1ccc(Cl)cc1Cl = f
O=C(COc1ccc(Cl)cc1Cl)Oc1cncnc1 = f
CC(C)ONC(=O)COc1ccc(Cl)cc1Cl = f
N/C(=N\OC(=O)COc1ccc(Cl)cc1Cl)c1ccco1 = t
